# System: anesthetized guinea-pig
# Protocol Description: inotropic effect and lethal dose in anesthetized guinea-pig (infusion over 90 minutes)
# Format: in vivo
# Condition Set: anesthetized guinea-pig, infusion over 90 min
Endpoint Name: Dead/treated

{"Compound": "C[C@@H]1/C(=N/OCCN)CC[C@@]2(C)C1C(=O)C[C@@H]1[C@@H]2CC[C@]2(C)C(=O)CC[C@@H]12.Cl (stereo partly shown) [Compd. 22d]", "Recorded Value": "0/3"}
{"Compound": "C[C@]12C[C@@H](F)/C(=N/O[C@@H]3CCNC3)CC1CC[C@@H]1[C@@H]2CC[C@]2(C)C(=O)CC[C@@H]12.Cl (stereo partly shown) [I-bh]", "Recorded Value": "2/2"}
{"Compound": "C[C@H]1O[C@@H](O[C@H]2[C@@H](O)C[C@H](O[C@H]3[C@@H](O)C[C@H](O[C@H]4CC[C@@]5(C)[C@H](CC[C@@H]6[C@@H]5C[C@@H](O)[C@]5(C)[C@@H](C7=CC(=O)OC7)CC[C@]65O)C4)O[C@@H]3C)O[C@@H]2C)C[C@H](O)[C@@H]1O [Digoxin, digoxin]", "Recorded Value": "10/10"}
{"Compound": "CC[C@H]1/C(=N/O[C@@H]2CCNC2)CC[C@@]2(C)C1C(=O)C[C@@H]1[C@@H]2CC[C@]2(C)C(=O)CC[C@@H]12.Cl (stereo partly shown) [I-be]", "Recorded Value": "3/3"}
